- Measured On: TIP60-KAT5 (Homo sapiens)
- Construct: encoding amino acid residues 2 to 461 (Uniprot Q92993-2) of human KAT5 isoform; made in house; host or cells: E. coli BL21 DE3
- Sequence (Q92993 2-461 isoform Q92993-2): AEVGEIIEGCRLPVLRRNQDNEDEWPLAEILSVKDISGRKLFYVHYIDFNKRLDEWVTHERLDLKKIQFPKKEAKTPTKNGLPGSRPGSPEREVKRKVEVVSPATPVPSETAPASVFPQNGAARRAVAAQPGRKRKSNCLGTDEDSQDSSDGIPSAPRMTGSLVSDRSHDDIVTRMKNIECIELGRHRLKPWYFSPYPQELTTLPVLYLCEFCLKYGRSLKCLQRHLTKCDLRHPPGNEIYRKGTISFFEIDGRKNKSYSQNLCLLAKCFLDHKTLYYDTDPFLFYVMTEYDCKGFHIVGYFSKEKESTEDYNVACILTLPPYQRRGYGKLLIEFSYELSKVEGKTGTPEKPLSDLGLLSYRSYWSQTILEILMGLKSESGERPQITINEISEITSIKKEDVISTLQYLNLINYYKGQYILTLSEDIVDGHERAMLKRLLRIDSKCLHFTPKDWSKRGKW
- Protocol Summary: Acetyltransferase biochemical assay (AlphaScreen), KAT5
- Reported Conditions: Table 1 (TIP60-KAT5); 0.4 μM Acetyl coenzyme A, histone H4, 10 nM enzyme
Overview of reported IC50 across a group of compounds:
The reply should contain only the number, in µM.

O=C(NCCc1cccnc1)C1=Nc2ccc(I)cc2S(=O)(=O)N1: 77.7
COCc1ccccc1CCNC(=O)C1=Nc2ccc(I)cc2S(=O)(=O)N1: 2.36

Lab note: need IC50 for CNC(=O)c1ccccc1CCNC(=O)C1=Nc2ccc(I)cc2S(=O)(=O)N1 on TIP60-KAT5 (Homo sapiens), anyone have it?
75.6

Same for O=C(NCC(c1ccccc1)c1ncco1)C1=Nc2ccc(-c3cnn(CCO)c3)cc2S(=O)(=O)N1 (centres unmarked)
79.7

Ok, now CNC(=O)c1ccc2c(c1)S(=O)(=O)NC(C(=O)NCC(c1ccccc1)c1ncco1)=N2 (centres unmarked)
5.04

What do you have for O=C(NCCc1ccccn1)C1=Nc2ccc(I)cc2S(=O)(=O)N1 ?
20.8
